target: Hs_FPR1 (Homo sapiens, UniProt P21462); construct: expressed in transfected cells; assay: BRET receptor-RLuc8 interaction with Venus-mGsi; assay type: cell-based
Sequence (P21462 whole entry): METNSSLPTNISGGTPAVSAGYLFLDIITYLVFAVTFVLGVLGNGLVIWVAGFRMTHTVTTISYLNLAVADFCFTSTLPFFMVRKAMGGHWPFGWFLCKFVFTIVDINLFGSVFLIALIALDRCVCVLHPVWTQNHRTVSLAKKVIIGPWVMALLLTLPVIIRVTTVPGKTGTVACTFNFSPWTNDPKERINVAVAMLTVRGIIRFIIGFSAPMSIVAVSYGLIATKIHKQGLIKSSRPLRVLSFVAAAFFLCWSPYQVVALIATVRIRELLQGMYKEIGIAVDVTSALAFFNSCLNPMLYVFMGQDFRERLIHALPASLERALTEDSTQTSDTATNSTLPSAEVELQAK
Where a SMILES comes first, the peptide text is derived from it. The star is where a group is joined. For = O=C*
Reported Emax values for the following compounds.

| compound | Emax / % |
| --- | --- |
| CSCC[C@H](NC(=O)[C@@H](NC(=O)[C@H](CCSC)NC(=O)[C@H](Cc1ccc(O)cc1)NC(=O)[C@H](CCCCN)NC(=O)[C@@H](N)Cc1c[nH]c2ccccc12)C(C)C)C(N)=O [WKYMVM] | 44.1 |
| CSCC[C@H](NC(=O)[C@H](Cc1ccc(O)cc1)NC(=O)[C@H](CCCCN)NC(=O)[C@@H](N)Cc1c[nH]c2ccccc12)C(=O)N[C@H](C(=O)N[C@H](CCSC)C(N)=O)C(C)C [WKYMVm] | 112 |
| COc1cc(F)c([C@@H]2CNC(=O)[C@H]2NC(=O)Nc2ccccc2)c(F)c1 [BMS-986235] | 7.4 |
| CSCC[C@H](NC=O)C(=O)N[C@@H](CC(C)C)C(=O)N[C@@H](Cc1ccccc1)C(=O)N[C@@H](CCCCN)C(=O)O [fMLFK, fMet-Leu-Phe-Lys] (For-MLFK-OH) | 104 |
